Values were extracted from the supplement of paper PMC9170038.

Tested on: MS2 coat protein
Test: apparent KD of MS2 coat protein; designed switch direction (-1 OFF switch, 1 ON switch): -1; higher = weaker reporter binding
Settings: Eterna round: R95; input ligand: none
Class 1: apparent KD of MS2 coat protein at least 50 nM. Class -1: apparent KD of MS2 coat protein below 50 nM.

[[record]]
seq_text = "UCCUCACAUGAGGAUCACCCAUGUCAGGAUAUGCGCGGCCAAAAGGGCUGCUAAGGCAGCAGAAGGGACGUGAA [Rarequtece] (puzzle: Exclusion 1)"
class_assignment = -1

[[record]]
seq_text = "AGAAGACAUGAGGAUCACCCAUGUAAGGAUAUCGGAGGUAAGGGAGGAAGGAGAUAGGCGAGAAGGUACAGGUG [JR_Exclu1_Sub093] (puzzle: Exclusion 1)"
class_assignment = 1

[[record]]
seq_text = "CACAAGCUUUUUUGUUGCUUUUUAGUUGGUGUAUGAUAAACAUGAGGAUCACCCAUGUAAUAGAUGCUCGAUCUUUU [JR_SV3TOV2_Sub083] (puzzle: Sensor v3, turn-off variant 2)"
class_assignment = -1

[[record]]
seq_text = "AAAUACAAGUAAAGAUCCUACAUGAGGAUCACCCAUGUGCUCGUUUUAUAAAGUACUAUCACGAAAGUGAUAGUACA [Sensor 3, v1 - 23] (puzzle: Sensor v3, turn-off variant 1)"
class_assignment = 1


Lab note: next sequence to report on.
Ask: Hi, just wondering whether UUUUAACAUGAGGAUCACCCAUGUGAGGAUAUCGUAAUUUAUAUUAAUAUUAAUAAAACGAGAAGGCACAUUUU [JMF 5] (puzzle: Exclusion 1) shows apparent KD of MS2 coat protein of 50 nM or higher.
Reply: 1

----------
Tested on: MS2 coat protein
Test: apparent KD of MS2 coat protein; designed switch direction (-1 OFF switch, 1 ON switch): -1; higher = weaker reporter binding
Settings: input ligand: FMN 200 uM
measured_quantity: apparent KD of MS2 coat protein (nM)
Answers are plain numbers, in nM.

Answer for every listed entry: what is its apparent KD of MS2 coat protein? The entries follow.
1. AGAUUACAUGAGGAUCACCCAUGUCAGGAUAUCGACUGAACAGCUUCGGCUGUUCAGUCGAGAAGGGACAAUUA [Brourdxlusion 10 - Jieux - Exclusion 1] (Eterna round: R97, puzzle: Exclusion 1)
2. CCUACGUUGUAGGAUAUAGUGAUUUAUUAAUAUUUAGAAGGACAUACAUGAGGAUCACCCAUGUGAGUUGGGUG [Eternabot (L2) Solution 27] (Eterna round: R97, puzzle: Exclusion 6)

Reply:
[122, 153]

----------
System: K4 kissing-loop RNA reporter;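 further: bound reporter read as fluorescence of individual clusters on recovered sequencing chips by microscopy, with normalized cluster intensities fitted with a binding model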
Assay: apparent KD of K4 kissing-loop reporter; higher = weaker reporter binding
Conditions: Eterna round: R107; input ligand: FMN 200 uM
param class (str): category from apparent KD of K4 kissing-loop reporter; see ranges low value: < 0.2 µM; medium value: ≥ 0.2 µM and < 0.3 µM; high value: ≥ 0.3 µM

A selection of reference data follows.
[[record]]
seq_text = "AAGAAGAAUGGAAGGAGCGAGCAGAAAUAACCAGUGAUGUUGGAAAGCCUUAUUGCUUAAGCUCAGGUAGGUCGCCAAGAAAAGA [Mostly trial and error]"
class_assignment = "low value"

[[record]]
seq_text = "UCACCGCCUAGUGAUGUUACGCGACUCAGAAAGGAUAUAAUCAAUCUUAGAAGGUUCACACCGUAUGGAUAUUAUCUAUCUCGUU [theeternabot_exclusion_KL_FMN_A_39]"
class_assignment = "high value"

[[record]]
seq_text = "AGUAAUGAGUGAUGUUCAAGUAGUAAGGAUACCAGUAAUUCAAAAUGCCCUUGGCAGCUUAGCGCUACCAAUAGAUGGGUAGUGG [Theophilline A V3 (+6G)]"
class_assignment = "medium value"

[[record]]
seq_text = "AGAGAUAUAUGAGGAUAUGGGUUUGUUAAUGAGUUAGUUUUAGUGUUGUUUGGUUAGUGAUGUUAUUUAGAAGGCGUGAGUGAUG [aatrmullin]"
class_assignment = "low value"

[[record]]
seq_text = "UCGCAUUAACCGGAUACCAGCUUAGUGGGAUCUUCAAUCCGACAGAAAGUGAUGUUUUCUAGCCCUUGGCAGCCGAGAUUAUCAC [theeternabot_sameState_KL_Theo_B_50]"
class_assignment = "medium value"


Ask: # bin label for CUUGGCAUGCGCGAUACCAGCGAACAUAGCAAGCUACGGGUAGUGAUGUUAUCUGAAUAACGCCCUUGGCAGCGCACAUGCCGGC [clock]
Reply: high value

Ask: What do you have for UUAGGCUCUCUUCUCAUUCGCUUAACCGAUACCAGAGUAAGCCCUCUCCCUUGGCAGCGGAGUGAUGUUCCGAGUGUUGAUAUUG [theeternabot_exclusion_KL_Theo_A_44] ?
Reply: low value

Ask: Consider next the sequence GAGAACUCUUACGAUACCAGCCGGAGUGAUGUUCCGUGCUUGGACGUAGUAACCCGCACCGGCCCUUGGCAGCGUGGAUCCUAUG [Biorar] in the same way.
Reply: low value

Ask: Okay, and UGUAUGUGAUUUGAUACCAGACCAGCUGGUGGAAACUGAGUGAUGUUCAGUUAGGUUUGGGUCCCUUGGCAGCAAAUCGCAUACU [KL-SSTheoB28] ?
Reply: low value

Ask: Let us now turn to AAUAUAUAGUGAAGGAGCGCGAUAAGCAGUGAUGUUGCUUAGUUAUUAGUGUUUAUUUUUACGCAGGUAGGUCGCACUAUAUAUA [JR_ExcArginiB_Sub017]
Reply: low value

Ask: What do we get for AAACAUUGGUGCGAUACCAGCUGAUCGGAAACGAUCAUGCUGGAGUGAUGUUCCAGGAAAAGCCCUUGGCAGCGCACCGAUGAAA [MAT - Same State Theophlline B - Mod of Eli - D29] ?
Reply: low value
